Target: EGFR del19 T790M C797S protein in Ba/F3 cells (Homo sapiens, UniProt P00533, C797S/DEL746-750/T790M)
Sequence (P00533 with tags, fused parts or gaps C797S/DEL746-750/T790M limits assumed): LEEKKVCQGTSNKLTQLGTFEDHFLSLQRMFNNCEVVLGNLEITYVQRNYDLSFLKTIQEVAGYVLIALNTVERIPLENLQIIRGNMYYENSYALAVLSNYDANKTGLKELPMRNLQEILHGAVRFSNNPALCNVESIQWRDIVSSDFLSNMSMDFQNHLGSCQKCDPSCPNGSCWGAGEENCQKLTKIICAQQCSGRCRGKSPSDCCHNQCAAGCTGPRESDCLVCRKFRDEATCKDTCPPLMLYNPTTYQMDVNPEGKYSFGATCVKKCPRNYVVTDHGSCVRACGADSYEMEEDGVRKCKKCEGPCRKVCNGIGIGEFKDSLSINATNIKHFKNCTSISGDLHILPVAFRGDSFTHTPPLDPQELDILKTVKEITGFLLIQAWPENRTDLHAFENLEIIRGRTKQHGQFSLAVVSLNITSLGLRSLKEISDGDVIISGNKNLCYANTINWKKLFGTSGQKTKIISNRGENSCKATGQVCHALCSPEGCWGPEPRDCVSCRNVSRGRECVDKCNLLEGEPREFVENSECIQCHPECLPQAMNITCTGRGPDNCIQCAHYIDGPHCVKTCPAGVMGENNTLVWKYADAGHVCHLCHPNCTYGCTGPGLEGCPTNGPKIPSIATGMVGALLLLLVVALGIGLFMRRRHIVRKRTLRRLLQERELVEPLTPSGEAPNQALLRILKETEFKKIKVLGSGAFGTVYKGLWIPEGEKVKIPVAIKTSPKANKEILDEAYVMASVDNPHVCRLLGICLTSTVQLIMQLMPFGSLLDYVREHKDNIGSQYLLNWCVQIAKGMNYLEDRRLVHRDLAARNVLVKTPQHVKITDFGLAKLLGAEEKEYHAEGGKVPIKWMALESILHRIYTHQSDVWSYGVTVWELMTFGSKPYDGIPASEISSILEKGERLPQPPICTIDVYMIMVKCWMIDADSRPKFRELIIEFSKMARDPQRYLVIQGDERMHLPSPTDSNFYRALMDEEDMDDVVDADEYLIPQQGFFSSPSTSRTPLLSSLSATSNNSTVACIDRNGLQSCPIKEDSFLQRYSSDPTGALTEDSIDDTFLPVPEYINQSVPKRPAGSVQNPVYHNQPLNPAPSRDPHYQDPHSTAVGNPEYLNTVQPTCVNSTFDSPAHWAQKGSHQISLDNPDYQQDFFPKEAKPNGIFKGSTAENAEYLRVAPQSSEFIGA
Test: pEGFR assay (AlphaScreen Surefire, EGFR Tyr1068 phosphorylation)
Format: cell-based
Measured pIC50, listed per entry for reference.
Bear in mind: pIC50 is minus log10 of a mol/L concentration; give just that figure.

Please review the following examples before continuing.
> print(dat)
                  compound.structure.string  reported
1  Cn1cc(-c2cc(C(=O)/N=c3\[nH]c4ccccc4n3[C@H]3CC[C@@H](O)C3)ccn2)cn1      7.52
2  O=C(/N=c1\[nH]c2ccccc2n1[C@H]1CC[C@@H](O)CC1)c1ccnc(-c2ccccc2)c1      8.40
3  O=C(/N=c1\[nH]c2ccccc2n1[C@H]1CC[C@@H](O)CC1)c1ccnc(-c2cnn(C(F)F)c2)c1      8.70

Indicate the recorded pIC50 value for this compound: CCCn1/c(=N/C(=O)c2ccnc(-c3cnn(C)c3)c2)[nH]c2ccccc21
7.03
